MEASURED ON: human TRPML1 (Homo sapiens, UniProt Q9GZU1)
Sequence (Q9GZU1 whole entry L15A/L16A/L577A/L578A, form open): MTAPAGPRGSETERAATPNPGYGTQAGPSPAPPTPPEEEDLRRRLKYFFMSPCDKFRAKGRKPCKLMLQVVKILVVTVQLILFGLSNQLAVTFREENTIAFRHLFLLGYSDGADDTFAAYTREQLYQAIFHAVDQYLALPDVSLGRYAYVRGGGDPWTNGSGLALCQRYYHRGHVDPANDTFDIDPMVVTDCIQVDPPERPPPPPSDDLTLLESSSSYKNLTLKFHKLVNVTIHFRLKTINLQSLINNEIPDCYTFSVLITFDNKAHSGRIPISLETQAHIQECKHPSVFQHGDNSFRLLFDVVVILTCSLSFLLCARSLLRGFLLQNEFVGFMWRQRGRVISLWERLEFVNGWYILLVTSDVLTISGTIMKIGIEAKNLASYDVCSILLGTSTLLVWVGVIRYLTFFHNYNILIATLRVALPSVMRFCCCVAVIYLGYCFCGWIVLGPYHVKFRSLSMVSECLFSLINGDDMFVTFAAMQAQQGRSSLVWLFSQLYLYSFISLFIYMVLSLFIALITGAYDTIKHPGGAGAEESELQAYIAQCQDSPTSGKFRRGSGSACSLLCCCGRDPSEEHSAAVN
TEST METHOD NOTES: Fluorescent TRPML1 assay (Fluo4-AM calcium fluorescence, HEK-293 Trex cells)
Type: cell-based
APPLIED CONDITIONS: Table 3, compounds 201-283
MEASURED ATTRIBUTE: EC50

INSERT INTO results (compound, measured_attribute, result) VALUES
  ('C[C@@H]1CN(c2ncnc3c2c(C2CC2)cn3-c2cc(F)cc(F)c2)[C@@H](C)CN1C(=O)C(C)(C)C', 'EC50', '< 100 nM'),
  ('C[C@@H]1CN(c2ncnc3c2c(C2CCC2)cn3-c2cccc(Cl)c2)[C@@H](C)CN1C(=O)C1(F)CC1', 'EC50', '500 to 2000 nM'),
  ('COC(C)(C)C(=O)N1C[C@H](C)N(c2ncnc3c2c(-c2ccccc2F)cn3-c2cc(C#N)ccn2)C[C@H]1C', 'EC50', '< 100 nM'),
  ('C[C@H]1CN(C(=O)C(C)(C)C)CCN1c1ncnc2c1c(N1CCC1)cn2-c1cccc(F)c1', 'EC50', '< 100 nM');

----------
Recorded measurements of EC50, one per entry
MEASURED ON: TRPML2 (Homo sapiens, UniProt Q8IZK6)
Construct: expressed in transfected cells
Sequence (Q8IZK6 whole entry): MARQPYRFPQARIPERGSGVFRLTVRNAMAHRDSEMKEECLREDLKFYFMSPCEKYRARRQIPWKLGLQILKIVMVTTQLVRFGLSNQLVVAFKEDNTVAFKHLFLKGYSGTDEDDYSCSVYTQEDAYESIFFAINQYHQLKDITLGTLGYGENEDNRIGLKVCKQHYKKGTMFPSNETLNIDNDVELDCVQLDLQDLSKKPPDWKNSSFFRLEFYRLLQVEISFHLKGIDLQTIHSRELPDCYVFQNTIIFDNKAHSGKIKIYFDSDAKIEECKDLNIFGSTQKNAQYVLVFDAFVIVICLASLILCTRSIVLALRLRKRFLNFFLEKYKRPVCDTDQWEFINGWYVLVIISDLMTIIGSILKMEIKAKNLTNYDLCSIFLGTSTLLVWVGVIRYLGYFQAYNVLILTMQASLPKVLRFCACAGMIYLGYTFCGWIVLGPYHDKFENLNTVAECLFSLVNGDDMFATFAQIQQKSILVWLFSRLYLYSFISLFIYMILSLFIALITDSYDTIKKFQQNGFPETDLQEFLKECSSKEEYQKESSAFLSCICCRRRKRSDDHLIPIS
TEST METHOD NOTES: Fluorescent TRPML2 assay (as for TRPML1)
Type: cell-based
APPLIED CONDITIONS: Table 3, compounds 201-283
MEASURED ATTRIBUTE: EC50

INSERT INTO measurements (compound, result) VALUES
  ('C[C@@H]1CN(c2nccc3c2c(C2CC2)cn3-c2cccc(F)c2)[C@@H](C)CN1C(=O)C(C)(C)C', '> 2000 nM'),
  ('C[C@@H]1CN(c2ncnc3c2c(C2CCC2)cn3-c2cc(C#N)ccn2)[C@@H](C)CN1C(=O)C(C)(C)C(F)(F)F', '100 to 500 nM'),
  ('CC(C)C(=O)N1C[C@@H](C)N(c2ncnc3c2c(-c2ccccc2F)cn3-c2cc(C#N)ccn2)C[C@@H]1C', '100 to 500 nM'),
  ('CC(C)CC(=O)N1CCN(c2ncnc3c2c(N2CCC2)cn3-c2cc(C#N)ccn2)C[C@H]1C', '100 to 500 nM');

----------
MEASURED ON: TRPML3 (Homo sapiens)
Construct: expressed in transfected cells
Sequence (Q8TDD5 whole entry): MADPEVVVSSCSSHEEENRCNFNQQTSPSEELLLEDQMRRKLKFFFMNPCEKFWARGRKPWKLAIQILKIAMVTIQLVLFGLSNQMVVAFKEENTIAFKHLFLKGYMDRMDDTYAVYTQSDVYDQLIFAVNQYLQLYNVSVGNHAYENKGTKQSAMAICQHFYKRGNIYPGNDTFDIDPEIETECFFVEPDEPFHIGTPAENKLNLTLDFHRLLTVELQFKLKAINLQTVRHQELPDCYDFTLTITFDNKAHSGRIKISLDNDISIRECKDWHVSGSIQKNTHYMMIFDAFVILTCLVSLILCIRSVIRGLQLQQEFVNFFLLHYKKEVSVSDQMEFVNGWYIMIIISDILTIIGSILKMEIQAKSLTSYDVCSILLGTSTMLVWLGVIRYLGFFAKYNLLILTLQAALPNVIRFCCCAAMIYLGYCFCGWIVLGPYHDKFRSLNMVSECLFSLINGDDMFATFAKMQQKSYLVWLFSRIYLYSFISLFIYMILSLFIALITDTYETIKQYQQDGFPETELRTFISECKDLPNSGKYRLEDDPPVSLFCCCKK
TEST METHOD NOTES: Fluorescent TRPML3 assay (as for TRPML1)
Type: cell-based
APPLIED CONDITIONS: Table 3, compounds 201-283
MEASURED ATTRIBUTE: EC50

INSERT INTO results (compound, measured_attribute, result) VALUES
  ('CC(C)C(=O)N1C[C@H](C)N(c2ncnc3c(-c4cc(C#N)ccn4)cn(-c4ccccc4F)c23)C[C@H]1C', 'EC50', '< 0.1 µM'),
  ('Cc1cn(-c2cc(F)ccn2)c2ncnc(N3C[C@@H](C)N(C(=O)C(C)(C)C)C[C@@H]3C)c12', 'EC50', '0.5 to 2 µM'),
  ('C[C@@H]1CN(c2ncnc3c2c(N2CCC2)cn3-c2cc(C#N)ccn2)CCN1C(=O)C(C)(C)C', 'EC50', '< 0.1 µM'),
  ('C[C@@H]1CN(c2ncnc3c2c(N2CCCC2)cn3-c2cccc(Cl)c2)CCN1C(=O)C1(F)CC1', 'EC50', '0.5 to 2 µM'),
  ('C[C@@H]1CN(c2ncnc3c2c(C2CCC2)cn3-c2cc(C#N)ccn2)[C@@H](C)CN1C(=O)C(C)(C)C(F)(F)F', 'EC50', '< 0.1 µM'),
  ('C[C@@H]1CN(c2ncnc3c2c(C2CC2)cn3-c2cc(F)cc(F)c2)[C@@H](C)CN1C(=O)C(C)(C)C', 'EC50', '0.1 to 0.5 µM'),
  ('COC(C)(C)C(=O)N1C[C@H](C)N(c2ncnc3c2c(C2CC2)cn3-c2cccc(F)c2)C[C@H]1C', 'EC50', '0.1 to 0.5 µM'),
  ('COC(C)(C)C(=O)N1C[C@H](C)N(c2ncnc3c2c(C(F)(F)F)cn3-c2cccc(F)c2)C[C@H]1C', 'EC50', '0.1 to 0.5 µM'),
  ('C[C@H]1CN(C(=O)C(C)(C)C)CCN1c1ncnc2c1c(C1CC1)cn2-c1cccc(F)c1', 'EC50', '0.5 to 2 µM'),
  ('CC(C)C(=O)N1C[C@H](C)N(c2ncnc3c2c(N2CCC2)cn3-c2cccc(Cl)c2)C[C@H]1C', 'EC50', '0.5 to 2 µM'),
  ('COC(C)(C)C(=O)N1C[C@H](C)N(c2ncnc3c2c(-c2ccccc2F)cn3-c2cc(C#N)ccn2)C[C@H]1C', 'EC50', '< 0.1 µM'),
  ('C[C@H]1CN(C(=O)C2(F)CC2)CCN1c1ncnc2c1c(N1CCCC1)cn2-c1cccc(Cl)c1', 'EC50', '0.1 to 0.5 µM'),
  ('COC(C)(C)C(=O)N1C[C@H](C)N(c2ncnc3c2c(-c2ccccc2)cn3-c2cc(C#N)ccn2)C[C@H]1C', 'EC50', '< 0.1 µM'),
  ('C[C@H]1CN(C(=O)[C@H](F)C(C)(C)C)CCN1c1ncnc2c1c(C1CC1)cn2-c1cc(C#N)ccn1 (single isomer, unassigned)', 'EC50', '< 0.1 µM'),
  ('C[C@@H]1CN(c2ncnc3c2c(C2CCC2)cn3-c2cccc(F)c2)[C@@H](C)CN1C(=O)C1(F)CC1', 'EC50', '0.5 to 2 µM'),
  ('[2H]C([2H])([2H])C([2H])(C(=O)N1C[C@H](C)N(c2ncnc3c2c(-c2ccccc2F)cn3-c2cc(C#N)ccn2)C[C@H]1C)C([2H])([2H])[2H] (single isomer, unassigned)', 'EC50', '< 0.1 µM'),
  ('C[C@@H]1CN(c2ncnc3c2c(C2CCC2)cn3-c2cc(F)cc(F)c2)[C@@H](C)CN1C(=O)C(C)(C)C', 'EC50', '0.5 to 2 µM'),
  ('COC(C)(C)C(=O)N1CCN(c2ncnc3c2c(-c2ccccc2F)cn3-c2cc(C#N)ccn2)C[C@H]1C', 'EC50', '< 0.1 µM'),
  ('C[C@@H]1CN(c2ncnc3c2c(C2CCC2)cn3-c2cccc(C(F)(F)F)c2)[C@@H](C)CN1C(=O)C1(F)CC1', 'EC50', '0.5 to 2 µM'),
  ('C[C@@H]1CN(c2ncnc3c2c(-c2ccccc2F)cn3-c2cc(C#N)ccn2)[C@@H](C)CN1C(=O)C(C)(C)C', 'EC50', '< 0.1 µM'),
  ('C[C@@H]1CN(c2ncnc3c2c(C2CCC2)cn3-c2cc(C#N)ccn2)[C@@H](C)CN1C(=O)C(C)(C)C', 'EC50', '0.5 to 2 µM'),
  ('CC(C)C(=O)N1CCN(c2ncnc3c(-c4cc(C#N)ccn4)cn(-c4ccccn4)c23)[C@@H](C)C1', 'EC50', '> 2 µM'),
  ('C[C@@H]1CN(c2ncnc3c2c(N2CCC2)cn3-c2cc(C#N)ccn2)CCN1C(=O)C1(F)CC1', 'EC50', '< 0.1 µM'),
  ('COC(C)(C)C(=O)N1CCN(c2ncnc3c2c(-c2ccccc2F)cn3-c2cc(C#N)ccn2)[C@@H](C)C1', 'EC50', '0.1 to 0.5 µM'),
  ('CCCC(=O)N1CCN(c2ncnc3c2c(N2CCC2)cn3-c2cc(C#N)ccn2)C[C@H]1C', 'EC50', '< 0.1 µM'),
  ('C[C@@H]1CN(c2ncnc3c2c(C2CCC2)cn3-c2cc(F)cc(F)c2)[C@@H](C)CN1C(=O)CC(C)(C)C(F)(F)F', 'EC50', '0.5 to 2 µM'),
  ('C[C@@H]1CN(c2ncnc3c2c(C2CCC2)cn3-c2cccc(Cl)c2)[C@@H](C)CN1C(=O)C(C)(C)C', 'EC50', '0.1 to 0.5 µM');
